conditions used: 308.15 K; 30000 kPa; Liquid; Vibrating tube method
Below, each entry is listed with its recorded mass density.
Answer format: numeric, kg/m3 implied, no suffix.

# count of solved cases: 2
Report measured mass density; entry is Cc1ccsc1 [3-methylthiophene]
1028.73

Report measured mass density; entry is Cc1ccc(C)s1 [2,5-dimethylthiophene]
993.47

---
Report measured mass density; entry is Cc1cccs1 [2-methylthiophene]
1027.84

Report measured mass density; entry is c1ccsc1 [thiophene]
1071.73

====

conditions used: 333.15 K; 50000 kPa; Liquid; Vibrating tube method
reported property: mass density (kg/m3)
Answer format: numeric, kg/m3 implied, no suffix.

# count of solved cases: 2
Report measured mass density; entry is `Cc1cccs1`
1018.9

Report measured mass density; entry is `Cc1ccc(C)s1`
985.62

---
Report measured mass density; entry is `c1ccsc1`
1061.09

Report measured mass density; entry is `Cc1ccsc1`
1020

====

conditions used: 338.15 K; 7000 kPa; Liquid; Vibrating tube method
Below, each entry is listed with its recorded mass density.
Answer format: numeric, kg/m3 implied, no suffix.

Report measured mass density; entry is c1ccsc1 [thiophene]
1017.69

---
Report measured mass density; entry is Cc1ccc(C)s1 [2,5-dimethylthiophene]
946.13

Report measured mass density; entry is Cc1cccs1 [2-methylthiophene]
978.09

Report measured mass density; entry is Cc1ccsc1 [3-methylthiophene]
980.02

====

conditions used: 288.15 K; 55000 kPa; Liquid; Vibrating tube method
± gives the expanded uncertainty stated by the source.
reported property: mass density

# count of solved cases: 3
Report measured mass density; entry is `Cc1ccsc1`
1062.56 ± 0.55 kg/m3

Report measured mass density; entry is `c1ccsc1`
1108.7 ± 0.57 kg/m3

Report measured mass density; entry is `Cc1cccs1`
1062.27 ± 0.58 kg/m3

Kindly consider the entry below.
Report measured mass density; entry is `Cc1ccc(C)s1`
1026.62 ± 0.51 kg/m3

====

conditions used: 333.15 K; 65000 kPa; Liquid; Vibrating tube method
Below, each entry is listed with its recorded mass density.
Answer format: numeric, kg/m3 implied, no suffix.

Report measured mass density; entry is Cc1ccc(C)s1 [2,5-dimethylthiophene]
995.41

Report measured mass density; entry is c1ccsc1 [thiophene]
1071.7

Report measured mass density; entry is Cc1ccsc1 [3-methylthiophene]
1029.88

Kindly consider the entry below.
Report measured mass density; entry is Cc1cccs1 [2-methylthiophene]
1028.94

====

Below, each entry is listed with its recorded mass density.
conditions used: 313.15 K; 20000 kPa; Liquid; Vibrating tube method
± gives the expanded uncertainty stated by the source.
Express the reported value numerically, then name its unit.

Report measured mass density; entry is `c1ccsc1`
1058.47 ± 0.51 kg/m3

---
Report measured mass density; entry is `Cc1ccsc1`
1016.63 ± 0.51 kg/m3

Report measured mass density; entry is `Cc1cccs1`
1015.45 ± 0.53 kg/m3

Report measured mass density; entry is `Cc1ccc(C)s1`
981.52 ± 0.5 kg/m3

====

conditions used: 293.15 K; 5000 kPa; Liquid; Vibrating tube method
Below, each entry is listed with its recorded mass density.
Answer format: numeric, kg/m3 implied, no suffix.

# count of solved cases: 3
Report measured mass density; entry is c1ccsc1 [thiophene]
1068.67

Report measured mass density; entry is Cc1cccs1 [2-methylthiophene]
1024.16

Report measured mass density; entry is Cc1ccc(C)s1 [2,5-dimethylthiophene]
989.21

Kindly consider the entry below.
Report measured mass density; entry is Cc1ccsc1 [3-methylthiophene]
1025.16
